Literature-derived IC50 for UniProtKB Q9NWZ3 follows.

query smiles: Cc1cc(Nc2nc(N[C@H]3CC[C@](C)(O)CC3)c3c(ccn3Cc3cccnc3)n2)sn1
test value: 100 to 1000 nM
--
query smiles: Cn1ncc2cc(-c3cccc(C(=O)Nc4nc(CCCCCC(=O)N5CCCCC5)cn4-c4ccccc4)c3)ccc21
test value: > 100 nM

Ask: Param readout = IC50; param system = UniProtKB Q9NWZ3; param query = Cn1nnnc1[C@H]1CC[C@H](Nc2cc(-c3ccc4cc(C#N)cnn34)ncc2C(=O)NC[C@@H](F)C(C)(C)O)CC1 ; response: value
Result: < 1 nM

====

Literature-derived IC50 for IRAK4 (Homo sapiens (Human), UniProt Q9NWZ3) follows.

Record excerpt, results attached:
query smiles: COc1cc(-n2ccc3nc(Nc4cc(C)ns4)nc(NC(C)C)c32)ccn1
test value: 100 to 1000 nM
--
query smiles: C[C@@H]1COCCN1[C@H]1CC[C@H](Oc2ncnc3sc4c(c23)[C@@H](CC(N)=O)CC4)CC1
test value: < 5000 nM
--
query smiles: CC(C)c1nc2c(N[C@H]3CC[C@H](N4CCOCC4)CC3)nc(Nc3cnn(C)c3)nc2s1
test value: ≤ 1000 nM

Moving on to the next molecule.
Ask: Looking for the measured IC50 of Oc1cccc(-n2cc(Nc3nc(N[C@H]4CC[C@H](O)CC4)c4sccc4n3)cn2)c1 , can you help?
Result: 100 to 1000 nM
